assay: Cytotoxicity against MDCK cells assessed as reduction in cell viability after 24 hrs by MTT assay; type: cell-based, Canis lupus familiaris; conditions: dog
Reported CC50 at 24 h is given for each of the following compounds.

*Q* I am curious: what CC50 at 24 h value has been reported for `O=S(=O)(c1ccc(Br)cc1)N(Cc1cccs1)Cc1cccs1` ?
*A* 81 µM

*Q* Here is the next compound: `N#CCCN(Cc1cccs1)S(=O)(=O)c1ccc(C(F)(F)F)cc1`
*A* > 178 µM

*Q* Here is the next compound: `COc1ccc(S(=O)(=O)N(CCC#N)Cc2cccs2)cc1`
*A* > 198 µM

*Q* Here is the next compound: `N#CCCN(Cc1ccco1)S(=O)(=O)c1ccc(F)cc1`
*A* 216 to 227 µM

----------
Reported CC50 at 24 h is given for each of the following compounds.
test: Cytotoxicity against MDCK cells assessed as reduction in cell viability after 24 hrs by MTT assay; format: cell-based, Canis lupus familiaris; conditions: dog

CCCN(CCC#N)S(=O)(=O)c1ccc(Br)cc1; 116 µM

*Q* I am curious: what CC50 at 24 h value has been reported for `N#CCCN(Cc1cccs1)S(=O)(=O)c1ccccc1F` ?
*A* > 206 µM

----------
Reported CC50 at 24 h is given for each of the following compounds.
assay: Cytotoxicity against MDCK cells assessed as reduction in cell viability after 24 hrs by MTT assay; assay type: cell-based, Canis lupus familiaris; settings: dog

Some compounds with known CC50 at 24 h results, for comparison:
N#CCCN(Cc1cccs1)S(=O)(=O)c1ccc(N)cc1; > 208 µM
N#CCCN(Cc1cccs1)S(=O)(=O)c1ccc(F)cc1; > 206 µM
N#CCCN(Cc1cccs1)S(=O)(=O)c1ccc([N+](=O)[O-])cc1; > 190 µM
N#CCCN(Cc1cccs1)S(=O)(=O)c1ccc(Br)cc1; > 173 µM
N#CCCN(Cc1cccs1)S(=O)(=O)c1ccc(C#N)cc1; > 201 µM

Consider the additional compound presented here.
*Q* I am curious: what CC50 at 24 h value has been reported for `CCOC(=O)CCN(Cc1cccs1)S(=O)(=O)c1ccc(Br)cc1` ?
*A* > 154 µM

----------
test: Cytotoxicity against MDCK cells assessed as reduction in cell viability after 24 hrs by MTT assay; type: cell-based, Canis lupus familiaris; conditions: dog
reported.endpoint: CC50 at 24 h

Cc1ccc(S(=O)(=O)N(CCC#N)Cc2ccco2)cc1; > 219 µM
O=C(O)CCN(Cc1cccs1)S(=O)(=O)c1ccc(Br)cc1; > 165 µM
Cc1cccc(S(=O)(=O)N(CCC#N)Cc2ccco2)c1; > 219 µM
CC(=O)c1ccc(S(=O)(=O)N(CCC#N)Cc2cccs2)cc1; > 191 µM
N#CCCN(Cc1cccs1)S(=O)(=O)c1ccc(Cl)cc1; > 196 µM

*Q* I am curious: what CC50 at 24 h value has been reported for `Cc1ccc(S(=O)(=O)N(CCC#N)Cc2cccs2)cc1` ?
*A* 127 µM

*Q* Here is the next compound: `N#CCCN(Cc1ccco1)S(=O)(=O)c1ccc(Br)cc1`
*A* > 181 µM

*Q* Here is the next compound: `N#CCCN(Cc1ccco1)S(=O)(=O)c1ccc(Cl)cc1`
*A* > 205 µM

*Q* Here is the next compound: `CCCN(Cc1cccs1)S(=O)(=O)c1ccc(Br)cc1`
*A* > 178 µM

*Q* Here is the next compound: NC12CC3CC(CC(C3)C1)C2 [AMANTADINE]
*A* > 441 µM

*Q* Here is the next compound: `N#CCCN(Cc1ccco1)S(=O)(=O)c1ccc(C(F)(F)F)cc1`
*A* > 186 µM

*Q* Here is the next compound: `COc1ccc(S(=O)(=O)N(CCC#N)Cc2ccco2)cc1`
*A* > 208 µM

FYI, the data here is from ChEMBL document CHEMBL4261607.
